Experiment: Binding affinity to Hsp90 after 4 hrs by GM-FITC based fluorescence polarization assay
Classification field: Criterion met = pIC50 at or over 6; Criterion not met = pIC50 under 6.

> print(dat)
                           molecular.string     assigned.class
1  O=C1c2ccccc2C(=O)c2c(-c3cc(Cl)c(O)cc3O)noc21  Criterion not met
2     O=C1c2ccccc2C(=O)c2c(-c3ccccc3O)noc21  Criterion not met
3  CC(=O)Oc1cccc2c1C(=O)c1c(-c3cc[n+](Cc4ccccc4)cc3)noc1C2=O.[Br-]      Criterion met
4      O=C1c2ccccc2C(=O)c2c(-c3cccnc3)noc21      Criterion met
5      O=C1c2ccccc2C(=O)c2c(-c3ccccc3)noc21  Criterion not met
6    COc1ccc(-c2noc3c2C(=O)c2cnccc2C3=O)cc1  Criterion not met
